# Target Or Test System: PRMT5 (Homo sapiens)
# Construct: purchased Viva (custom protein)
# Sequence (O14744 whole entry): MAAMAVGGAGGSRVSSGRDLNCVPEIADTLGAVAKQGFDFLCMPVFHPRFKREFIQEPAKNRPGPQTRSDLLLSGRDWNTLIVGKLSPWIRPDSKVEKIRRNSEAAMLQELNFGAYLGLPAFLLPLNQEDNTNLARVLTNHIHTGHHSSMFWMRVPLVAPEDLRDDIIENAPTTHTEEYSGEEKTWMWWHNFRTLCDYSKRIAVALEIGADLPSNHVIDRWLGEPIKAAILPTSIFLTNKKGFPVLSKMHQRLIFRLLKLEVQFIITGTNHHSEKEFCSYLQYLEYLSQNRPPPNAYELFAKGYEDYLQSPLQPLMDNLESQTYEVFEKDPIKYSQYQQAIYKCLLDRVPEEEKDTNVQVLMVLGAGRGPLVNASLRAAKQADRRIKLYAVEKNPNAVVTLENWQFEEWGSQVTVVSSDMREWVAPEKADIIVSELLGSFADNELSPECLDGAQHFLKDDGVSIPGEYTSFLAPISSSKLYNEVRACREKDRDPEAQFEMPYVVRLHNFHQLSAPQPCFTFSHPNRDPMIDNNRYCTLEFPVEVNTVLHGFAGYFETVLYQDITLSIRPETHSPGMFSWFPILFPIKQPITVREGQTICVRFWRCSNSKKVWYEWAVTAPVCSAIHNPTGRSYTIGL
# Sequence (Q9BQA1 whole entry partner): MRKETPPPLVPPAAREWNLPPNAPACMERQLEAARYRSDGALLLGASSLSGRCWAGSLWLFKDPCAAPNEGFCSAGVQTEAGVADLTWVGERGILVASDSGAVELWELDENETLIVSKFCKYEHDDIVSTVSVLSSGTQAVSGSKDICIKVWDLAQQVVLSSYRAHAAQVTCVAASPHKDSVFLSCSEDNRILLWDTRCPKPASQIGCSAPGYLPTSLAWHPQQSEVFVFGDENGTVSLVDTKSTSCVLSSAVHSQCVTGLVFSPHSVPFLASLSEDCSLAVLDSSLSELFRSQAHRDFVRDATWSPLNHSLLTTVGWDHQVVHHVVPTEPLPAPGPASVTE
# Protocol Text: PRMT5 biochemical IC50 assay with SAM as cofactor
# Condition Details: PRMT5, SAM as cofactor; read-out: SAM IC50
Measured Quantity: IC50

// each listed molecule needs a value for IC50
1. CCOc1ncc(NC(=O)C(=O)N2C[C@@H](C)CC[C@@H]2c2ccccc2)cc1C(N)=O (racemic) [Compound 738]
2. COc1ncc(NC(=O)C(=O)N2C[C@@H](C)CC[C@@H]2c2ccc3nn(C4CCN(C)CC4)cc3c2)cc1C(N)=O (racemic)
3. C[C@H]1CCC[C@@H](c2ccccc2)N1C(=O)C(=O)Nc1cncc(C(N)=O)c1 (single isomer, unassigned)
4. Cc1ccc([C@H]2CC[C@H](C)CN2C(=O)C(=O)Nc2cncc(C(N)=O)c2)cn1 (single isomer, unassigned)
5. NC(=O)c1cncc(NC(=O)C(=O)N2CCCCC2C2CCCC2)c1 (stereo not shown)
6. CCc1cc(NC(=O)C(=O)N2C[C@@H](C)CC[C@@H]2c2ccc3sc(CN4CCOCC4)nc3c2)cnc1N
7. CCc1cc(NC(=O)C(=O)N2C[C@@H](C)CC[C@@H]2c2ccc3nn([C@@H]4CCN(C)C4)cc3c2)cnc1N (racemic)

1. 0.05 to 0.5 µM
2. < 0.05 µM
3. 0.05 to 0.5 µM
4. > 0.5 µM
5. 0.05 to 0.5 µM
6. 0.05 to 0.5 µM
7. 0.05 to 0.5 µM
